System: NCI-H23 lung
experimentalDetails: NCI-60 one-dose screen, 48 h (100 = growth as untreated, 0 = no growth, -100 = all killed)
details: 10 µM unless noted
About 83,000 compounds went through this panel and 20% of them were active in at least one assay; those are over-represented in the sample as a whole.
# thresholds on growth define classes: bottom bin = under 20%, middle bin = from 20% up to 80%, top bin = 80% and over

A selection of reference data follows.
[Q] The entry to classify is Nc1nc(-c2cccc([N+](=O)[O-])c2)c(N=Nc2ccc(Br)cc2)s1 ; which class holds it?
[A] bottom bin

[Q] What about this molecule? Cn1cc(-c2nc(N)nnc2-c2c[nH]c3ccc(Br)cc23)c2cc(Br)ccc21
[A] middle bin

[Q] What about this molecule? Cn1cc(-c2nc(N)nnc2-c2c[nH]c3ccccc23)c2cc(Br)ccc21
[A] bottom bin

[Q] What about this molecule? CNC(=O)c1cc(-c2ccc(NS(=O)(=O)c3ccc(C)cc3)cc2)nc2cccnc12
[A] top bin

[Q] What about this molecule? Nc1ncc(-c2ccc3ncnc(Nc4cccc(Cl)c4F)c3c2)cn1
[A] middle bin

[Q] What about this molecule? Cc1noc(C)c1CSc1nc2ccccc2n1-c1ccccc1
[A] top bin

[Q] What about this molecule? CNC(=O)c1cc(Oc2ccc3nc(NC(=O)c4cccc(OC(F)(F)F)c4)sc3c2)ccn1
[A] top bin

[Q] What about this molecule? CCCn1cnc2c(c1=N)C(c1ccc(Cl)cc1)c1sc3c(CC)cccc3c1O2 (stereo not given)
[A] bottom bin

New cases:
[Q] The entry to classify is CCNC(=O)N1CCc2cc(OC)c(OCCc3ccc(OC)nc3)cc2C1c1ccc(C)cc1C (stereo not given) ; which class holds it?
[A] bottom bin

[Q] What about this molecule? COc1ccc2c(c1)Oc1nc(N)c(C#N)c(N)c1C2Sc1ccc(C)cc1 (stereo not given)
[A] bottom bin

[Q] What about this molecule? O=C(Nc1nonc1-c1ccccc1)c1ccc(C(F)(F)F)cc1
[A] middle bin

[Q] What about this molecule? NC(N)=Nc1ccc(Nc2cccc(Oc3ccc(Cl)c(C(F)(F)F)c3)c2)cn1
[A] middle bin

[Q] What about this molecule? COc1cc(-c2nn(C(C)(C)C)cc2-c2ccnc(NCCCNS(=O)(=O)c3ccc(Cl)cc3)n2)ccc1Cl
[A] middle bin

[Q] What about this molecule? CCOC(=O)c1c(Nc2ccccc2)nn2c(-c3ccc(OC)cc3)ccnc12
[A] top bin

[Q] What about this molecule? CCOc1cccc(-c2nc3sccn3c2-c2ccnc(S(C)(=O)=O)n2)c1
[A] top bin
